System: Methicillin Resistant Staphylococcus aureus strain USA 300, NRS384 (S. aureus)
Experiment: Minimum inhibitory concentration, broth micro-dilution (CLSI)
Assay type: cell-based
Conditions: MRSA / NRS 384 / USA300, 22 h, read-out: MIC (μg/mL) S. aureus
For each record, check the reported MIC: if it is below 0.5 µg/mL write met, else write not met.

// below: answered molecules
molecule="C[C@@H]1NC(=O)[C@@H](N(C)C(=O)[C@H](CCCCN)NC(=O)c2ccc(-c3ccc(Cl)cc3)cc2)c2ccc(O)c(c2)-c2cc(ccc2O)C[C@@H](C(=O)NN(C)C(=O)CCl)NC1=O [Compound 145]" assigned_label="not met"
molecule="CCCCCCCCc1ccc(C(=O)N[C@@H](CCN)C(=O)N(C)[C@@H]2C(=O)N[C@@H](C)C(=O)N[C@H](C(=O)NOC)Cc3ccc(OCCN)c(c3)-c3cc2ccc3OCCN)c(C)c1 [Compound 113]" assigned_label=met
molecule="CCCCCCOc1ccc(C(=O)N[C@@H](CCN)C(=O)N(C)[C@@H]2C(=O)N[C@@H](C)C(=O)N[C@H](C(=O)N[C@@H](C)C(=O)c3nnn[nH]3)Cc3ccc(OCCN)c(c3)-c3cc2ccc3OCCN)c(Cl)c1 [Compound 116]" assigned_label=met

Strictly below 0.5 µg/mL in MIC? CCCCCCCc1ccc(C(=O)N[C@@H](CCN)C(=O)N(C)[C@@H]2C(=O)N[C@@H](C)C(=O)N[C@H](C(=O)NS(=O)(=O)O)Cc3ccc(OCCN)c(c3)-c3cc2ccc3OCCN)c(C)c1 [Compound 111] met

Lab note: MIC threshold 0.5 µg/mL. Does this molecule come in strictly under it? CCCCc1ccc(-c2ccc(C(=O)N[C@@H](CN)C(=O)N(C)[C@@H]3C(=O)N[C@@H](C)C(=O)N[C@H](c4nsc(=O)[nH]4)Cc4ccc(OCCN)c(c4)-c4cc3ccc4OCCN)cc2)cc1 [Compound 132] not met

Would you kindly verify if MIC of CCCCc1ccc(-c2ccc(C(=O)N[C@@H](CCCN)C(=O)N(C)[C@@H]3C(=O)N[C@@H](C)C(=O)N[C@H](C(=O)NO)Cc4ccc(OCCN)c(c4)-c4cc3ccc4OCCN)cc2)cc1 [Compound 136] is strictly less than 0.5 µg/mL? met
